Biological target: rat angiotensin 2 type 1 receptor (rat)
Test: cell-based or functional assay
endpoint name: IP One Max (%)

Illustrative cases are given below, each with its answer.
# substance, IP One Max, %
records = [
    ("SEQ ID NO: 5 (Sar-Arg-Val-Gly-Val-His-Pro-Gly-OH) (peptide)", 24.8),
    ("SEQ ID NO: 9 (Sar-Arg-Val-Tyr-Ile-His-Pro-Ala-OH) (peptide)", 9.5),
    ("SEQ ID NO: 3 (Sar-Arg-Val-Ile-Val-His-Pro-Ile-OH) (peptide)", 19.6),
    ("SEQ ID NO: 8 (Sar-Arg-Val-Tyr-Val-His-Pro-Ala-NH2) (peptide)", 11.3),
    ("SEQ ID NO: 25 (Asp-Arg-Val-Tyr-Ile-His-Pro-Ala-OH) (peptide)", 14.1),
]

1 = SEQ ID NO: 10 (Sar-Arg-Val-Tyr-Ile-His-Pro-Ala-NH2) (peptide)
2 = SEQ ID NO: 6 (Sar-Arg-Val-Gly-Val-His-Pro-Gly-NH2) (peptide)
3 = SEQ ID NO: 32 (Me2G-Arg-Val-Tyr-Ile-His-Pro-Ala-OH) (peptide)
4 = SEQ ID NO: 2 (Sar-Arg-Val-Ile-Ile-His-Pro-Ile-NH2) (peptide)
Query block: Kindly order the items shown according to IP One Max, from the highest value down. Please express your ranking as an ordered list of the labels.
Result block: 4, 2, 1, 3
